Target: Glycogen synthase kinase-3 (Sus scrofa) (UniProt B2LUN4+I6LNT8)
Test: Inhibition of porcine brain GSKalpha/beta using GS-1 as substrate at 10 uM after 30 mins in presence of [gamma33P] ATP by scintillation counting
assayMetric: inhibition (%)

Please review the entries below; each comes with its answer.
{"inputSmiles": "Nc1ncc2c(Cc3ccccc3)c3cnccc3c(N)c2n1", "inhibition [%]": 12}
{"inputSmiles": "CCCCc1c2cnccc2c(N)c2nc(N)ncc12", "inhibition [%]": 34}
{"inputSmiles": "Nc1ncc2c(Cc3ccccc3)c3cnccc3c([N+](=O)[O-])c2n1", "inhibition [%]": 14}
{"inputSmiles": "CCc1c2cnccc2c(N)c2nc(N)ncc12", "inhibition [%]": 79}

a: Nc1ncc2c(-c3ccccc3)c3cnccc3c(N)c2n1
b: Nc1ncc2c(Br)c3cnccc3c([N+](=O)[O-])c2n1
a or b : whose inhibition is greater? Kindly state the label of the option you pick.
b
(b: 41%, a: 25%)
